Parameter pEC50: see the listing below.
molecular target: human Glucagon-R (Homo sapiens); construct: expressed in transfected cells; assay: Glucagon receptor assay (cAMP induction, AlphaScreen); assay type: cell-based; details: HEK293 cells expressing the human Glucagon-R, 15 min at 37° C., read-out: GCG-R EC50 in vitro
Sequence (P47871 26-477): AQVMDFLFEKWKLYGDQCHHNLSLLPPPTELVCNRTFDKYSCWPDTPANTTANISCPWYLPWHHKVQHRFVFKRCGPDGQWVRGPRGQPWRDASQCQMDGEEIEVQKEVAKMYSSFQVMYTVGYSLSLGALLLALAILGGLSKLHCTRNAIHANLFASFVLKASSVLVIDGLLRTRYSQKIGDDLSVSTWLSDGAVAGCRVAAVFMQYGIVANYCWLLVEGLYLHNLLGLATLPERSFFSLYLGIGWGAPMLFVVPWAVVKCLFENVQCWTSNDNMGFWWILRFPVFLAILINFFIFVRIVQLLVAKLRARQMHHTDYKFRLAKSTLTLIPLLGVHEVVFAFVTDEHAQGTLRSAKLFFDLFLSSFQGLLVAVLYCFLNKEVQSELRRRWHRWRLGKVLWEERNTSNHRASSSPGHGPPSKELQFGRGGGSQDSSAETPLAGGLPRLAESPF
pEC50: −log10 of the molar value.
measured-endpoint: pEC50

{"substance": "H-HSQGTFTSDYSKYLDSARAEDFVKWLEET-OH [Compound 2]", "obs-value": 9.74}
{"substance": "H-HSQGTFTSDYSKYLDEARAKDFVEWLEKT-OH [Compound 5]", "obs-value": 9.77}
{"substance": "H-HSQGTFTSDYSKYLESARAESFVKWLEST-OH [Compound 16]", "obs-value": 9.41}
{"substance": "H-HSQGTFTSDYSKYLDSARAEDFVEWLEST-OH [Compound 6]", "obs-value": 9.00}
{"substance": "H-HSQGTFTSDLSKYLDSARAEDFVKWLEST-OH [Compound 11]", "obs-value": 9.96}
{"substance": "H-HSQGTFTSDYSKYLDSARAEDFVSWLEST-OH [Compound 10]", "obs-value": 9.49}
{"substance": "H-HSQGTFTSDYSKYLDSARAEEFVKWLEST-OH [Compound 9]", "obs-value": 10.52}
{"substance": "H-HSQGTFTSDYSKYLDEARAKSFVEWLEKT-OH [Compound 27]", "obs-value": 10.20}
{"substance": "H-HSQGTFTSDYSKYLDKRRAEDFVSWLEST-OH [Compound 18]", "obs-value": 10.59}
{"substance": "H-HSQGTFTSDYSKYLDEARAEDFVKWLEST-OH [Compound 14]", "obs-value": 9.82}
{"substance": "H-HSQGTFTSDYSKYLDLARAEDFVKWLEST-OH [Compound 17]", "obs-value": 10.54}
{"substance": "H-HSQGTFTSDYSKYLDSARAEDFVKWLES-OH [Compound 13]", "obs-value": 10.15}
{"substance": "H-HSQGTFTSDYSRYLESARAEDFVKWLEST-OH [Compound 7]", "obs-value": 9.03}
{"substance": "H-HSQGTFTSDYSKYLDKARAEDFVKWLEST-OH [Compound 3]", "obs-value": 10.52}
{"substance": "H-HSQGTFTSDYSKYLDSARAESFVKWLEST-OH [Compound 1]", "obs-value": 10.19}
{"substance": "H-HSQGTFTSDYSKYLDSARAEDFVAWLEST-OH [Compound 4]", "obs-value": 9.47}
{"substance": "H-HSQGTFTSDYSKYLESARAEDFVKWLEST-OH [Compound 8]", "obs-value": 9.42}
{"substance": "H-HSQGTFTSDYSKYLDVARAESFVKWLEST-OH [Compound 19]", "obs-value": 10.27}
{"substance": "H-HSQGTFTSDYSKYLDEARAKSFVEWLEST-OH [Compound 28]", "obs-value": 10.46}

====

Experiment: physchem
Details: pH 7.5
Method: A stock solution of the test peptide (2 mg/ml; determined by measurement of the absorption of the solution at 280 nm, and using the theoretical extension coefficient based on the content of tryptophan and tyrosine in the peptide) in demineralized water adjusted to pH 2.5 with HCl was prepared, and aliquots were diluted 1:1 in 100 mM acetate buffer (pH 4.0) and 100 mM phosphate buffer (pH 7.5), respectively, and loaded in a standard flat-bottom, non-sterile 96-well UV Microplate. […]

{"substance": "H-HSQGTFTSDYSKYLDSARAEEFVKWLEST-OH [Compound 9]", "solubility": "≥ 1000 µg/mL"}
{"substance": "H-HSQGTFTSDYSKYLDSARAESFVKWLEST-OH [Compound 1]", "solubility": "≥ 1000 µg/mL"}
{"substance": "H-HSQGTFTSDYSKYLESARAEDFVKWLEST-OH [Compound 8]", "solubility": "≥ 1000 µg/mL"}
{"substance": "H-HSQGTFTSDYSKYLDKARAEDFVKWLEST-OH [Compound 3]", "solubility": "≥ 1000 µg/mL"}
{"substance": "H-HSQGTFTSDYSKYLDSARAEDFVAWLEST-OH [Compound 4]", "solubility": "≥ 1000 µg/mL"}
{"substance": "H-HSQGTFTSDLSKYLDSARAEDFVKWLEST-OH [Compound 11]", "solubility": "≥ 1000 µg/mL"}
